Provenance of the data: patent US20250346597A1

pIC50: −log10 of the molar value.
# pIC50 per entry for DGKζ (Homo sapiens (Human))
Measure: pIC50

Solved cases (4 shown):
{"columns": ["Compound", "Value Observed"],
 "data": [
  ["CC[C@H]1CN(C(C)c2ccc3ncc(Cl)n3n2)[C@H](CC)CN1c1nc(=O)n(C)c2cn(CC#N)nc12 (single isomer, unassigned) [Compound A174a]", 5.05],
  ["CC[C@H]1CN(C(C)c2ccc3cc(C(F)F)sc3n2)[C@H](CC)CN1c1nc(=O)n(C)c2cn(CC#N)nc12 (single isomer, unassigned) [Compound A148b]", 7.35],
  ["CC[C@H]1CN(C(C)c2ccc3c(c2)OCO3)[C@H](CC)CN1c1cc(=O)n(C)c2cn(CC#N)nc12 (single isomer, unassigned) [Compound A68a]", 7.31],
  ["CC[C@H]1CN(C(C)c2ccc(C)c(C)n2)[C@H](CC)CN1c1cc(=O)n(C)c2cn(CC#N)nc12 (single isomer, unassigned) [Compound A54b]", 5.72]
]}

P = CC[C@H]1CN(C(C)c2ccc3nc(C)sc3n2)[C@H](CC)CN1c1nc(=O)n(C)c2cn(CC#N)nc12 (single isomer, unassigned) [Compound A129b]
Q = CC[C@H]1CN(C(C)c2ccc3cc(C(F)F)sc3n2)[C@H](CC)CN1c1cc(=O)n(C)c2cn(CC#N)nc12 (single isomer, unassigned) [Compound A144a]
R = CC[C@H]1CN(C(C)c2ccc3ncc(Cl)n3n2)[C@H](CC)CN1c1nc(=O)n(C)c2cn(CC#N)nc12 (single isomer, unassigned) [Compound A174b]
S = CC[C@H]1CN(C(C)c2ccc3c(n2)OCO3)[C@H](CC)CN1c1cc(=O)n(C)c2cn(CC#N)nc12 (single isomer, unassigned) [Compound A75b]
T = CC[C@H]1CN(C(C)c2ccc(C)cc2C)[C@H](CC)CN1c1cc(=O)n(C)c2cn(CC#N)nc12 (some centres unmarked) [Compound A6]
Req: Returns the items ordered by pIC50, from maximum to minimum. Dear reader, please state the labels in the requested order.
Resp: R, P, T, Q, S

====

pIC50: −log10 of the molar value.
# pIC50 per entry for DGKα (Homo sapiens (Human))
Measure: pIC50

{"columns": ["Compound", "Value Observed"],
 "data": [
  ["CC[C@H]1CN(C(C)c2ccc3nc(C)cn3n2)[C@H](CC)CN1c1nc(=O)n(C)c2cn(CC#N)nc12 (single isomer, unassigned) [Compound A150a]", 5.15],
  ["CC[C@H]1CN(C(C)c2ccc3c(C)cnn3c2)[C@H](CC)CN1c1cc(=O)n(C)c2cn(CC#N)nc12 (single isomer, unassigned) [Compound A204b]", 5.14],
  ["Cc1cc2nc(C(C)N3C[C@H](C)N(c4cc(=O)n(C)c5cn(CC#N)nc45)C[C@H]3C)ccc2s1 (single isomer, unassigned) [Compound A155b]", 6.86]
]}

P = CC[C@H]1CN(C(C)c2ccc3c(n2)OCO3)[C@H](CC)CN1c1cc(=O)n(C)c2cn(CC#N)nc12 (single isomer, unassigned) [Compound A75b]
Q = CC[C@H]1CN(C(C)c2ccc(C(=O)NC)cc2)[C@H](CC)CN1c1cc(=O)n(C)c2cn(CC#N)nc12 (single isomer, unassigned) [Compound A193a]
R = CC[C@H]1CN(C(C)c2ccc3scnc3c2F)[C@H](CC)CN1c1cc(=O)n(C)c2cn(CC#N)nc12 (single isomer, unassigned) [Compound A110b]
S = CC[C@H]1CN(C(C)c2ccn3nccc3n2)[C@H](CC)CN1c1nc(=O)n(C)c2cn(CC#N)nc12 (single isomer, unassigned) [Compound A163a]
Req: Returns the items ordered by pIC50, from maximum to minimum. Dear reader, please state the labels in the requested order.
Resp: Q, P, S, R
(Q: 6.29, P: 5.95, S: 5.72, R: 4.98)

1 = CC[C@H]1CN(C(C)c2cc(F)c(CN(C)C)c(F)c2)[C@H](CC)CN1c1cc(=O)n(C)c2cn(CC#N)nc12 (single isomer, unassigned) [Compound A25b]
2 = CC[C@H]1CN(C(C)c2ccc(CN3CCC(OC)CC3)cc2)[C@H](CC)CN1c1cc(=O)n(C)c2cn(CC#N)nc12 (single isomer, unassigned) [Compound A189b]
3 = CC[C@H]1CN(C(C)c2cnc3c(c2)ncn3C)[C@H](CC)CN1c1cc(=O)n(C)c2cn(CC#N)nc12 (stereo partly drawn)
4 = CC[C@H]1CN(C(C)c2ccc(CC#N)cc2)[C@H](CC)CN1c1cc(=O)n(C)c2cn(CC#N)nc12 (stereo partly drawn)
Req: Returns the items ordered by pIC50, from maximum to minimum. Dear reader, please state the labels in the requested order.
Resp: 4, 1, 2, 3

====

Assayed Target: DGKα (Homo sapiens (Human))
Sequence (P23743 whole entry): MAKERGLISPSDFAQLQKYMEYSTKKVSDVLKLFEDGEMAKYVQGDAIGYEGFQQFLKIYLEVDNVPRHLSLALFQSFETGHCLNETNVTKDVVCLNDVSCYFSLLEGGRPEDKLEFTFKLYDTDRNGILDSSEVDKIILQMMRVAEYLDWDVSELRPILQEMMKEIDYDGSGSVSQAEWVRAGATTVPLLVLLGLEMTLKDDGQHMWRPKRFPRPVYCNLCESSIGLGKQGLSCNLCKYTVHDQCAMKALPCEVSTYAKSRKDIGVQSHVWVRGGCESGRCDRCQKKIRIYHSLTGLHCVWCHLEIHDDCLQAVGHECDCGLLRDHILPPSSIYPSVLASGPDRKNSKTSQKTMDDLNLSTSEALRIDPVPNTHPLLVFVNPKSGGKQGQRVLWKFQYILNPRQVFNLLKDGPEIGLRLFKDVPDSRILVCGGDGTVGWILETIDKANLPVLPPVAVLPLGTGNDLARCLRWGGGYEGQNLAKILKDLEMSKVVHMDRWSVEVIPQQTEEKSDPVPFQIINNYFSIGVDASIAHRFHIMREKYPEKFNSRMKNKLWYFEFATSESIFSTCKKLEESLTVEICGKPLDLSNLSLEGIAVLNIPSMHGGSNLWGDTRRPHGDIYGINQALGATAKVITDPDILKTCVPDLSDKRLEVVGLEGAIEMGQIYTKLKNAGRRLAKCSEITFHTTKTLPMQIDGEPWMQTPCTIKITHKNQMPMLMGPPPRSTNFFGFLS
Test Description: Biochemical DGK IC50 assay (ADP-Glo, lipid micelle substrate), DGKα; note: full length DGKα 7.5 nM
Protocol Conditions: full length DGKα […], ATP 140 μM, DAG 80 μM
pIC50: −log10 of the molar value.
Measure: pIC50

{"columns": ["Compound", "Value Observed"],
 "data": [
  ["CC[C@H]1CN(C(C)c2ccc3nc(COC)sc3n2)[C@H](CC)CN1c1cc(=O)n(C)c2cn(CC#N)nc12 (single isomer, unassigned) [Compound A143a]", 5.50]
]}

I = CC#CCn1cc2c(n1)c(N1C[C@@H](CC)N(C(C)c3ccc4nc(C)sc4c3F)C[C@@H]1CC)cc(=O)n2C (single isomer, unassigned) [Compound A138b]
II = CC[C@H]1CN(C(C)c2ccc3ncc(F)n3n2)[C@H](CC)CN1c1cc(=O)n(C)c2cn(CC#N)nc12 (single isomer, unassigned) [Compound A168b]
III = CC#CCn1cc2c(n1)c(N1C[C@@H](CC)N(C(C)c3nc4ccccc4nc3C)C[C@@H]1C)cc(=O)n2C (single isomer, unassigned) [Compound A111b]
Req: Returns the items ordered by pIC50, from maximum to minimum. Dear reader, please state the labels in the requested order.
Resp: II, III, I

====

pIC50: −log10 of the molar value.
# pIC50 per entry for DGKα (Homo sapiens (Human))
Measure: pIC50

{"columns": ["Molecule", "Measure", "Value Observed"],
 "data": [
  ["CC#CCn1cc2c(n1)c(N1C[C@@H](CC)N(C(C)c3ccc4ncsc4n3)C[C@@H]1C)cc(=O)n2C (some centres unmarked) [Compound A118]", "pIC50", 7.70],
  ["CC[C@H]1CN(C(C)c2ccc3nc(C)sc3n2)[C@H](CC)CN1c1nc(=O)n(C)c2cn(CC#N)nc12 (single isomer, unassigned) [Compound A129a]", "pIC50", 5.68],
  ["CC[C@@H]1CN(c2cc(=O)n(C)c3cn(CC#N)nc23)[C@@H](C)CN1C(C)c1ccc2ncsc2c1 (single isomer, unassigned) [Compound A92a]", "pIC50", 6.97]
]}

A = CC[C@H]1CN(C(C)c2ccc(N)nc2)[C@H](CC)CN1c1cc(=O)n(C)c2cn(CC#N)nc12 (single isomer, unassigned) [Compound A187a]
B = [2H]C([2H])([2H])n1c(=O)cc(N2C[C@@H](CC)N(C(C)c3ccc4nc(C)sc4n3)C[C@@H]2CC)c2nn(CC#N)cc21 (single isomer, unassigned) [Compound A134a]
Req: Parameter metric = pIC50. Return the lower-valued option from A and B . To answer, give the label that identifies your chosen option.
Resp: B
(B: 5.47, A: 5.70)

A = Cc1cc2nc(C(C)N3C[C@H](C)N(c4cc(=O)n(C)c5cn(CC#N)nc45)C[C@H]3C)ccc2s1 (single isomer, unassigned) [Compound A155a]
B = CC#CCn1cc2c(n1)c(N1C[C@@H](CC)N(C(C)c3nc4ccccc4nc3C)C[C@@H]1C)cc(=O)n2C (single isomer, unassigned) [Compound A111a]
Req: Parameter metric = pIC50. Return the lower-valued option from A and B . To answer, give the label that identifies your chosen option.
Resp: B

A = CC[C@H]1CN(C(C)c2nc3c(s2)CCCC3)[C@H](CC)CN1c1cc(=O)n(C)c2cn(CC#N)nc12 (single isomer, unassigned) [Compound A36b]
B = CC[C@H]1CN(C(C)c2ccc3ncc(Cl)n3n2)[C@H](CC)CN1c1cc(=O)n(C)c2cn(CC#N)nc12 (single isomer, unassigned) [Compound A167b]
Req: Parameter metric = pIC50. Return the lower-valued option from A and B . To answer, give the label that identifies your chosen option.
Resp: A

1 = CC[C@H]1CN(C(C)c2ccc(C3CC3)nc2)[C@H](CC)CN1c1c(F)c(=O)n(C)c2cn(CC#N)nc12 (single isomer, unassigned) [Compound A48b]
2 = CC[C@H]1CN(C(C)c2cc3scnc3cc2F)[C@H](CC)CN1c1cc(=O)n(C)c2cn(CC#N)nc12 (single isomer, unassigned) [Compound A103a]
Req: Endpoint returns whichever of 1 and 2 has the numerically higher pIC50. To answer, give the label that identifies your chosen option.
Resp: 2

a = CC#CCn1cc2c(n1)c(N1C[C@@H](CC)N(C(C)c3cnc4ccccc4n3)C[C@@H]1CC)cc(=O)n2C (single isomer, unassigned) [Compound A206a]
b = CC[C@H]1CN(C(C)c2ccc3c(c2)CCC3)[C@H](CC)CN1c1cc(=O)n(C)c2cn(CC#N)nc12 (some centres unmarked) [Compound A65]
c = CC[C@H]1CN(C(C)c2cc3scnc3cc2F)[C@H](CC)CN1c1cc(=O)n(C)c2cn(CC#N)nc12 (single isomer, unassigned) [Compound A103b]
d = CC[C@H]1CN(C(C)c2ccn3ncc(F)c3n2)[C@H](CC)CN1c1nc(=O)n(C)c2cn(CC#N)nc12 (single isomer, unassigned) [Compound A164b]
Req: Your job: order these 4 records by pIC50, ascending. Dear reader, please state the labels in the requested order.
Resp: c, a, b, d

I = CC[C@H]1CN(C(C)c2ccc(C3CC3)nc2)[C@H](CC)CN1c1c(F)c(=O)n(C)c2cn(CC#N)nc12 (single isomer, unassigned) [Compound A48a]
II = CC[C@H]1CN(C(C)c2ccc(C(=O)N3CC(OC)C3)cc2)[C@H](CC)CN1c1cc(=O)n(C)c2cn(CC#N)nc12 (single isomer, unassigned) [Compound A1b]
Req: Parameter metric = pIC50. Return the lower-valued option from I and II . To answer, give the label that identifies your chosen option.
Resp: II
(II: 6.13, I: 6.62)

1 = CC[C@H]1CN(C(C)c2nc(C)c(C)s2)[C@H](CC)CN1c1cc(=O)n(C)c2cn(CC#N)nc12 (single isomer, unassigned) [Compound A35a]
2 = CC[C@H]1CN(C(C)c2cnc(C3CC3)cc2F)[C@H](CC)CN1c1cc(=O)n(C)c2cn(CC#N)nc12 (single isomer, unassigned) [Compound A47b]
Req: Endpoint returns whichever of 1 and 2 has the numerically higher pIC50. To answer, give the label that identifies your chosen option.
Resp: 1

1 = CC[C@H]1CN(C(C)c2ccc(C3CC3)cn2)[C@H](CC)CN1c1cc(=O)n(C)c2cn(CC#N)nc12 (some centres unmarked) [Compound A52]
2 = CC[C@H]1CN(C(C)c2cc(F)c3ncsc3c2)[C@H](CC)CN1c1cc(=O)n(C)c2cn(CC#N)nc12 (single isomer, unassigned) [Compound A101b]
Req: Parameter metric = pIC50. Return the lower-valued option from 1 and 2 . To answer, give the label that identifies your chosen option.
Resp: 2
